Source of measurements: patent US20060074243A1

# Target of assay: Human recombinant MMP-9 (Homo sapiens)
# Construct: made in house; host or cells: MMP-9-transfected HT1080 cells (spent media)
# Sequence (P14780 107-707 limits assumed): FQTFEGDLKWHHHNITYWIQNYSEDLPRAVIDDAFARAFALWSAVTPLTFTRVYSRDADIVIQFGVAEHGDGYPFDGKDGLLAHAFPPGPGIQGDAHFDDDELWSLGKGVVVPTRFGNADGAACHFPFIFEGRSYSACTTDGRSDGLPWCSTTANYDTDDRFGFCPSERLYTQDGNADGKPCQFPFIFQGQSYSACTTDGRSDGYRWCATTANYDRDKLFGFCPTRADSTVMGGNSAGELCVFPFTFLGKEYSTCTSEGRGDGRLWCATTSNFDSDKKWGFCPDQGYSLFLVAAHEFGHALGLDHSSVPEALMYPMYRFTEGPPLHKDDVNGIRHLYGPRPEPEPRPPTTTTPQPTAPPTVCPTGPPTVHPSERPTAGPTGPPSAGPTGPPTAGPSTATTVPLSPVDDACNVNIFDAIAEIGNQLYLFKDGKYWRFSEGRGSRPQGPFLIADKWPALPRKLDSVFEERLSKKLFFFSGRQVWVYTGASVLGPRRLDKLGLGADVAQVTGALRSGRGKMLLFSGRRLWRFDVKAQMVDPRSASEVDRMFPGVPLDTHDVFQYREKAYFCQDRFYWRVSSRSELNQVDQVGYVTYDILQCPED
# Assay text: In vitro MMP inhibition analysis (fluorogenic peptide substrate cleavage), Ki
# Format: biochemical
# Measurement context: Table 2
Readout kind: Ki (nM)
Give bare numbers, in nM.

Reference set (6 entries):
INSERT INTO assay_data (chemical_smiles, value) VALUES
  ('O=C(NCC1CC1)c1ccc2cc(-c3ccc(S(=O)(=O)C4(C(=O)NO)CCOCC4)cc3)ccc2c1', 50.5),
  ('O=C(NO)C1(S(=O)(=O)c2ccc(-c3ccc(CCC(F)(F)C(F)(F)F)cc3)cc2)CCS(=O)(=O)CC1', 12.5),
  ('CCCCNc1cnc(-c2ccc(S(=O)(=O)C3(C(=O)NO)CCOCC3)cc2)cn1', 2.75),
  ('O=C(NO)C1(S(=O)(=O)c2ccc(-c3cnc(-c4cccs4)cn3)cc2)CCOCC1', 3.16),
  ('O=C(Cc1ccc(-c2ccc(S(=O)(=O)C3(C(=O)NO)CCOCC3)cc2)nc1)N1CCCCC1', 437),
  ('O=C(N1CCOCC1)N1CCC(C(=O)NO)(S(=O)(=O)c2ccc(-c3ccc(CCC(F)(F)C(F)(F)F)cc3)cc2)CC1', 0.62);

Now for a further compound.
Query block: For "O=C(NO)C1(S(=O)(=O)c2ccc(-c3ccc(CCC(F)(F)F)cc3)cc2)CCOCC1" , what is its reported Ki?
Result block: 0.21

###

# Target of assay: Human recombinant MMP-9 (Homo sapiens)
# Construct: made in house; host or cells: MMP-9-transfected HT1080 cells (spent media)
# Assay text: In vitro MMP inhibition analysis (fluorogenic peptide substrate cleavage), Ki
# Type: biochemical
# Measurement context: Table 2
# Protocol: Several compounds and salts were analyzed in an in vitro assay to determine their ability to inhibit the MMP cleavage of peptide substrates. Inhibition constant (Ki) were calculated from the assayed compound-MMP interactions. […] The assays from which the Ki determinations were made were performed as follows. […] In the absence of MMP inhibitory activity, substrate (I) was cleaved at the Gly-Leu bond resulting in an increase of relative fluorescence. […]
// classify(record): look up Ki in ranges bucket 1 = under 1 nM, bucket 2 = from 1 nM up to 5 nM, bucket 3 = 5 nM and over

INSERT INTO measurements (compound, target_of_assay, discrete_label) VALUES
  ('O=C(NO)C1(S(=O)(=O)c2ccc(-c3cnc(OCCC4CC4)cn3)cc2)CCOCC1', 'Human recombinant MMP-9 (Homo sapiens)', 'bucket 1'),
  ('COCCC(C(=O)NO)S(=O)(=O)c1ccc(-c2ccc(CCC(F)(F)C(F)(F)F)cc2)cc1 (stereo not shown)', 'Human recombinant MMP-9 (Homo sapiens)', 'bucket 3'),
  ('CC(C)CCc1ccc(-c2ccc(S(=O)(=O)C3(C(=O)NO)CCOCC3)cc2)nc1', 'Human recombinant MMP-9 (Homo sapiens)', 'bucket 1'),
  ('CC(C)c1ccc(-c2ccc(S(=O)(=O)C3(C(=O)NO)CCOCC3)cc2)cc1', 'Human recombinant MMP-9 (Homo sapiens)', 'bucket 3'),
  ('C#CCN1CCC(C(=O)NO)(S(=O)(=O)c2ccc(-c3ccc(CCC(F)(F)C(F)(F)F)cn3)cc2)CC1', 'Human recombinant MMP-9 (Homo sapiens)', 'bucket 1'),
  ('O=C(NO)C1(S(=O)(=O)c2ccc(-c3ccc(OC(F)(F)F)cc3)cc2)CCOCC1', 'Human recombinant MMP-9 (Homo sapiens)', 'bucket 1'),
  ('O=C(NO)C1(S(=O)(=O)c2ccc(-c3cnc(OCCC4CCCC4)cn3)cc2)CCOCC1', 'Human recombinant MMP-9 (Homo sapiens)', 'bucket 2'),
  ('O=C(NO)C1(S(=O)(=O)c2ccc(-c3ccc(CCC4CCCCC4)cn3)cc2)CCOCC1', 'Human recombinant MMP-9 (Homo sapiens)', 'bucket 3');

Query block: Which band does "O=C(NO)C1(S(=O)(=O)c2ccc(-c3ccc(OCCCC(F)(F)F)cn3)cc2)CCOCC1" fall in?
Result block: bucket 2

Query block: Record: "O=C(NO)C1(S(=O)(=O)c2ccc(-c3cnc(N4CCCC4)cn3)cc2)CCOCC1"
Result block: bucket 2

Query block: Record: "CCN1CCC(C(=O)NO)(S(=O)(=O)c2ccc(-c3noc(-c4ccc(F)cc4)n3)cc2)CC1"
Result block: bucket 3

Query block: Record: "CC(C)CCOc1ccc(-c2ccc(S(=O)(=O)C3(C(=O)NO)CCOCC3)cc2)cc1"
Result block: bucket 2

Query block: Record: "COCCOc1ccc(-c2ccc(S(=O)(=O)C3(C(=O)NO)CCOCC3)cc2)cc1"
Result block: bucket 2

Query block: Record: "O=C(NO)C1(S(=O)(=O)c2ccc(-c3ccc(CCC(F)(F)F)cn3)cc2)CCOCC1"
Result block: bucket 1

Query block: Record: "CC(C)N(C(=O)N1CCC(C(=O)NO)(S(=O)(=O)c2ccc(-c3ccc(CCC(F)(F)C(F)(F)F)cc3)cc2)CC1)C(C)C"
Result block: bucket 2

Query block: Record: "CCCCc1ccc(-c2ccc(S(=O)(=O)C3(C(=O)NO)CCN(CC)CC3)cc2)nc1"
Result block: bucket 1

Query block: Record: "CC[C@H](C)NC(=O)c1ccc(-c2ccc(S(=O)(=O)C3(C(=O)NO)CCOCC3)cc2)nc1"
Result block: bucket 3

Query block: Record: "CCCCNC(=O)c1cnc(-c2ccc(S(=O)(=O)C3(C(=O)NO)CCOCC3)cc2)cn1"
Result block: bucket 3

Query block: Record: "O=C(NO)C1(S(=O)(=O)c2ccc(-c3ccc(-c4ccccc4F)cn3)cc2)CCN(C2CC2)CC1"
Result block: bucket 1

Query block: Record: "CCCCNC(=O)c1ccc(-c2ccc(S(=O)(=O)C3(C(=O)NO)CCOCC3)cc2)nc1"
Result block: bucket 3

Query block: Record: "O=C(NCC1CCCCC1)c1cnc(-c2ccc(S(=O)(=O)C3(C(=O)NO)CCOCC3)cc2)cn1"
Result block: bucket 3

Query block: Record: "O=C(NO)C1(S(=O)(=O)c2ccc(-c3ccc(-n4ccnc4)cc3)cc2)CCOCC1"
Result block: bucket 2

Query block: Record: "C#CCN(C)C(=O)c1ccc2cc(-c3ccc(S(=O)(=O)C4(C(=O)NO)CCOCC4)cc3)ccc2c1"
Result block: bucket 3

Query block: Record: "CCN1CCC(C(=O)NO)(S(=O)(=O)c2ccc(-c3ccc(OCCOC)c(F)c3)cc2)CC1"
Result block: bucket 3

Query block: Record: "CCCCOc1ccc(-c2ccc(S(=O)(=O)C3(C(=O)NO)CCN(C4CC4)CC3)cc2)cc1"
Result block: bucket 1

Query block: Record: "O=C(NO)C1(S(=O)(=O)c2ccc(-c3ccc4c(c3)OCO4)cc2)CCOCC1"
Result block: bucket 2

Query block: Record: "CCN1CCC(C(=O)NO)(S(=O)(=O)c2ccc(-c3noc(-c4ccncc4)n3)cc2)CC1"
Result block: bucket 3

Query block: Record: "COC/C(Cl)=C/c1cnc(-c2ccc(S(=O)(=O)C3(C(=O)NO)CCOCC3)cc2)cn1"
Result block: bucket 3

Query block: Record: "CN(C)C(=O)N1CCC(C(=O)NO)(S(=O)(=O)c2ccc(-c3ccc(CCC(F)(F)C(F)(F)F)cc3)cc2)CC1"
Result block: bucket 1

Query block: Record: "CC(C)CCc1cnc(-c2ccc(S(=O)(=O)C3(C(=O)NO)CCOCC3)cc2)cn1"
Result block: bucket 1
